B1: TCAP (parent)
chain: YQRVLPLPIFTPAKMGATKEERED

Variants of: B1
assay overview: protein stability index of a GFP-peptide fusion (GPS, HEK-293T) (PSI 1-6); higher = more stable;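 further: lentivirally expressed fusions sorted by FACS into six bins by GFP to DsRed ratio, PSI derived from sequencing read proportions per bin multiplied by bin number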
stated conditions: c terminus: a fixed tail appended
# protein stability index values compiled below
Lab note: jot down the number only; don't add units.

- mutation code: "L5A"
  protein stability index: 2.05
- mutation code: "L5Q"
  protein stability index: 2.03

Below: the item to evaluate.
Entry under review: D24C . Reported protein stability index?
1.98
